Ref: patent US7138361B2

- Tested on: crabgrass (Digitaria sanguinalis)
- experiment.description: Test B postemergence
- Type: in vivo
- condition.info: Rate 500 g/ha, scale 0 to 100, 0 is no effect, 100 is complete control, 13 to 15 days
Listed here are molecules together with their documented Plant response rating, Crabgrass.
reported.metric: Plant response rating, Crabgrass

INSERT INTO measurements (molecule, reported_metric, obs_value) VALUES
  ('CC1(c2ccn(C3OCN(c4cccc(OC(F)(F)F)c4)C3=O)n2)CC1 (stereo not shown)', 'Plant response rating, Crabgrass', 30),
  ('CC(C)Oc1cccc(N2CCC(n3ccc(C(C)(C)C)n3)C2=O)c1 (stereo not shown)', 'Plant response rating, Crabgrass', 0),
  ('CCC(C)c1ccn(C2CCN(c3cccc(OC(C)C)c3)C2=O)n1 (stereo not shown)', 'Plant response rating, Crabgrass', 0),
  ('CC1(C)CCc2cn(C3CCN(c4cccc(C(F)(F)F)c4)C3=O)nc21 (stereo not shown)', 'Plant response rating, Crabgrass', 0),
  ('CCC(C)c1nn(C2CCN(c3cccc(C(F)(F)F)c3)C2=O)cc1Cl (stereo not shown)', 'Plant response rating, Crabgrass', 60),
  ('CCCCC(C)c1ccn(C2SCN(c3cccc(C(F)(F)F)c3)C2=O)n1 (stereo not shown)', 'Plant response rating, Crabgrass', 0),
  ('CCC(CC)c1ccn(C2OCN(c3cccc(OC(F)(F)F)c3)C2=O)n1 (stereo not shown)', 'Plant response rating, Crabgrass', 100),
  ('O=C1C(n2ccc(C3CCCCC3)n2)OCN1c1cccc(C(F)(F)F)c1 (stereo not shown)', 'Plant response rating, Crabgrass', 20),
  ('CC(C)(C)c1nn(C2CCN(c3cccc(C(F)(F)F)c3)C2=O)cc1Cl (stereo not shown)', 'Plant response rating, Crabgrass', 70),
  ('CC1(c2ccn(C3SCN(c4cccc(OC(F)(F)F)c4)C3=O)n2)CC1 (stereo not shown)', 'Plant response rating, Crabgrass', 60);
